Below, each entry is listed alongside its reported Skin conductance.
# Test system: horny layer
# assay-method-text: Skin conductance (water content of horny layer) after two-week coating on cheeks
# Format: in vivo, women
# Design: key: conductance meter reading; ≤5 = severe roughness, ≥20 = no roughness
# experimental-conditions: Invention Product 1: vaseline and compound 3:1 by weight; two weeks; 20° C., 40% humidity; 5 and smaller = severe roughness, 20 or greater = no substantial roughness

| compound | subject-of-test | Skin conductance |
| --- | --- | --- |
| CCCCCCCCCCCCCCCCCC(=O)N(CCCO)CC(O)COCCCCCCCCCC (stereo not drawn) | horny layer | 13 |
| CCCCCCCCCCCCCCCCOCC(O)CN(CCOP(=O)(O)OCCNCc1ccccc1)C(=O)CCCCCCCCCCCCCCC (stereo not drawn) | horny layer | 15 |
| CCCCCCCCCCCCCCCCCCOCC(O)CN(CCCCCCO)C(=O)CCCCCCCCCC (stereo not drawn) | horny layer | 13 |

Value source: patent US4985547A
